System: Hs-578T
Test: NCI tumour cell line growth inhibition, 48 h
Activity calls are given as the source filed them. Rule as the data show it: active = GI50 up to about 1.1 µM and inactive = higher.
MEASURED_PARAMETER: GI50

Incoming: Please tell me: GI50 of Cc1cc(-c2cscn2)c(O)c([N+](=O)[O-])c1 , system Hs-578T?
Outgoing: 90.8 µM (inactive)

Incoming: Notebook entry, Hs-578T assay: GI50 of Cc1c(/C=N\NC(=S)NCCNC(=S)N/N=C\c2c(C)n(C)n(-c3ccccc3)c2=O)c(=O)n(-c2ccccc2)n1C = ?
Outgoing: > 100 µM (inactive)

Incoming: Please tell me: GI50 of Cc1ccc(F)cc1NC(=O)O/N=C(\Cl)C(C)C , system Hs-578T?
Outgoing: 22.5 µM (inactive)

Incoming: Entry C#C[C@]1(O)CC[C@H]2[C@@H]3CCC4=C/C(=N/NC(=O)c5cccc6cc7ccccc7nc56)CC[C@@H]4[C@H]3CC[C@@]21CC , system Hs-578T: what GI50 was measured?
Outgoing: 94 µM (inactive)

Incoming: Kindly state the measured GI50 obtained for COC(=O)C1C(OC(=O)c2ccccc2)CC2CCC1N2C(N)=O (stereo unspecified) with Hs-578T.
Outgoing: > 100 µM (inactive)

Incoming: Which measured GI50 belongs to Cc1cc(S(=O)(=O)NC2=Nc3cccc(F)c3CN2)c(S)cc1Cl , tested on Hs-578T?
Outgoing: > 100 µM (inactive)
